- System: Mycobacterium tuberculosis
- assay remarks: Inhibition of N-terminal hexahistidine-tagged recombinant Mycobacterium tuberculosis PtpB expressed in Escherichia coli BL21(DE3) using p-nitrophenylphosphate as substrate at 25 uM measured for 10 mins by ELISA plate spectrophotometric analysis relative to control
Calls of active or inactive are those of the source. No cut-off for these calls is given here.
quantity kind: inhibition

{"compound": "O=C1c2cccc3cccc(c23)C(=O)N1Cc1ccc(S(=O)(=O)N2CCCC2)cc1", "assay value": "inactive"}
{"compound": "O=C1C=CC(=O)N1c1ccc(S(=O)(=O)Cl)cc1", "assay value": "14%"}
{"compound": "O=C1c2cccc3c(Cl)ccc(c23)C(=O)N1Cc1ccc(S(=O)(=O)N2CCOCC2)cc1", "assay value": "inactive"}
{"compound": "O=C1C=CC(=O)N1c1ccccc1", "assay value": "27%"}
{"compound": "CC12C=CC(O1)C1C(=O)N(c3ccc(S(=O)(=O)N/N=C/c4ccc(Cl)c(Cl)c4)cc3)C(=O)C12 (stereo unspecified)", "assay value": "34%"}
{"compound": "CC12C=CC(O1)[C@@H]1C(=O)N(c3ccc(S(=O)(=O)N/N=C/c4ccc(Br)cc4)cc3)C(=O)[C@@H]12 (stereo partly specified)", "assay value": "59%"}
{"compound": "O=C1C2C3C=CC(O3)C2C(=O)N1c1ccc(S(=O)(=O)N2CCCC2)cc1 (stereo unspecified)", "assay value": "inactive"}
{"compound": "O=C1c2cccc3cccc(c23)C(=O)N1Cc1ccc(S(=O)(=O)N2CCOCC2)cc1", "assay value": "inactive"}
{"compound": "Cc1ccc(/C=N/NS(=O)(=O)c2ccc(N3C(=O)C4C5C=CC(C)(O5)C4C3=O)cc2)cc1 (stereo unspecified)", "assay value": "26%"}
{"compound": "CC12C=CC(O1)C1C(=O)N(c3ccc(S(=O)(=O)N4CCCC4)cc3)C(=O)C12 (stereo unspecified)", "assay value": "inactive"}
{"compound": "CC12C=CC(O1)C1C(=O)N(c3ccc(S(=O)(=O)N/N=C/c4ccc([N+](=O)[O-])cc4)cc3)C(=O)C12 (stereo unspecified)", "assay value": "32%"}
{"compound": "CC12C=CC(O1)C1C(=O)N(c3ccc(S(=O)(=O)N/N=C/c4ccccc4)cc3)C(=O)C12 (stereo unspecified)", "assay value": "59%"}
{"compound": "COc1ccc(/C=N/NS(=O)(=O)c2ccc(N3C(=O)C4C5C=CC(C)(O5)C4C3=O)cc2)cc1 (stereo unspecified)", "assay value": "inactive"}
{"compound": "CC12C=CC(O1)C1C(=O)N(c3ccc(S(=O)(=O)N4CCOCC4)cc3)C(=O)C12 (stereo unspecified)", "assay value": "inactive"}
{"compound": "O=C1C2C3C=CC(O3)C2C(=O)N1c1ccc(S(=O)(=O)N/N=C/c2ccc([N+](=O)[O-])cc2)cc1 (stereo unspecified)", "assay value": "57%"}
{"compound": "CC12C=CC(O1)C1C(=O)N(c3ccc(S(=O)(=O)N/N=C/c4ccc(Cl)cc4)cc3)C(=O)C12 (stereo unspecified)", "assay value": "59%"}

---

# reported IC50; entries follow
- target system: Tyrosine-protein phosphatase non-receptor type 1 (Homo sapiens)
- Sequence (P18031 whole entry): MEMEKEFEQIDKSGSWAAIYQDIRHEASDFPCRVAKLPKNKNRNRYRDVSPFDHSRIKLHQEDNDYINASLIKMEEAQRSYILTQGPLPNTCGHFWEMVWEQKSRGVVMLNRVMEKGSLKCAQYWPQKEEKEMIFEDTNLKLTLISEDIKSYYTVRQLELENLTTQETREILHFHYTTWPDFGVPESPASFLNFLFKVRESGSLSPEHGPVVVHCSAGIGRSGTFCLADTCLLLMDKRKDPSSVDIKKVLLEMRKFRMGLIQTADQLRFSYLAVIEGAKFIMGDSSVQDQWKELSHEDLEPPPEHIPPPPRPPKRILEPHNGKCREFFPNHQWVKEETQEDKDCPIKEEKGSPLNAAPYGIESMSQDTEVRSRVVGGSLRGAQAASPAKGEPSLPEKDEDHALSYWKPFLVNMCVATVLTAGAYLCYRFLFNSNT
- assay remarks: Inhibition of PTP1B (unknown origin) using p-nitrophenylphosphate as substrate measured for 10 mins by ELISA plate spectrophotometric analysis
quantity kind: IC50 (µM)

{"compound": "CC12C=CC(O1)C1C(=O)N(c3ccc(S(=O)(=O)N/N=C/c4ccccc4)cc3)C(=O)C12 (centres undefined)", "target system": "Tyrosine-protein phosphatase non-receptor type 1 (Homo sapiens)", "assay value": 7}
{"compound": "CC12C=CC(O1)C1C(=O)N(c3ccc(S(=O)(=O)N/N=C/c4ccc(Cl)cc4)cc3)C(=O)C12 (centres undefined)", "target system": "Tyrosine-protein phosphatase non-receptor type 1 (Homo sapiens)", "assay value": 41}
{"compound": "CC12C=CC(O1)[C@@H]1C(=O)N(c3ccc(S(=O)(=O)N/N=C/c4ccc(Br)cc4)cc3)C(=O)[C@@H]12 (some centres undefined)", "target system": "Tyrosine-protein phosphatase non-receptor type 1 (Homo sapiens)", "assay value": 88}
{"compound": "O=C1C2C3C=CC(O3)C2C(=O)N1c1ccc(S(=O)(=O)N/N=C/c2ccc([N+](=O)[O-])cc2)cc1 (centres undefined)", "target system": "Tyrosine-protein phosphatase non-receptor type 1 (Homo sapiens)", "assay value": 245}
